test system: MCF-7 cells; assay: Cellular proliferation EdU assay, MCF-7; format: cell-based; details: EdU assay, two days; read-out: MCF-7 IC50
pIC50: −log10 of the molar value.
Measurement type: pIC50

[[record]]
compound = "CCn1cnc2c(N[C@H]3CCN(S(=O)(=O)NC)C3)nc(N[C@@H](C)[C@@H](O)C(F)(F)F)nc21 (single isomer, unassigned) [Example 50]"
result_value = 5.56

[[record]]
compound = "CCn1cnc2c(N[C@H]3CCN(S(=O)(=O)NC)C3)nc(N[C@@H](C)[C@@H](O)C(F)(F)F)nc21 (single isomer, unassigned) [Example 49]"
result_value = 6.11


* * *

target: CDK1:CCNB1 (Homo sapiens (Human)); assay: NanoBRET assay in MCF-7 cells, CDK1; type: cell-based; settings: NanoBRET, transfected MCF-7 cells, 2 hours; n = 1 or average; read-out: CDK1 IC50
Sequence (P06493 whole entry): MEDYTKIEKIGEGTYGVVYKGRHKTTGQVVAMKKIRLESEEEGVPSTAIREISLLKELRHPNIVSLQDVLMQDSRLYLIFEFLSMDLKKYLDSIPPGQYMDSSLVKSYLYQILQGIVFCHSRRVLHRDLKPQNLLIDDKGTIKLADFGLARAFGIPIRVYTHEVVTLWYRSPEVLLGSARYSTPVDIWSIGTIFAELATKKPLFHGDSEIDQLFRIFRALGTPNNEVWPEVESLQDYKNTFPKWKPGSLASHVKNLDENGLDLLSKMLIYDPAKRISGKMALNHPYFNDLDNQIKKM
Sequence (P14635 whole entry partner): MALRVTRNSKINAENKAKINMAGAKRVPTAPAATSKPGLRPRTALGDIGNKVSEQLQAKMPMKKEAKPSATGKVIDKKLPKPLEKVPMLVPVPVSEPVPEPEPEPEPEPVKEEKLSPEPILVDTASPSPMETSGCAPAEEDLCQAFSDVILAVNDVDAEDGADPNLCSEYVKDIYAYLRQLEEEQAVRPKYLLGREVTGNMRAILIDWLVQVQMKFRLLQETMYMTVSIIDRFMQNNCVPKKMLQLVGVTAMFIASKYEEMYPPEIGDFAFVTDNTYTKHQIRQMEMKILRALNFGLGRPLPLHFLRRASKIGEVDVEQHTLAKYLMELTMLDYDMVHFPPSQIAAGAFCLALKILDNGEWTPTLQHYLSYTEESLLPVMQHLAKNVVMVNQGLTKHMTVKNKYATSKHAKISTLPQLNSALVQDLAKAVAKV
# IC50 listing for each entry below
Measurement type: IC50

[[record]]
compound = "CCNS(=O)(=O)N1CC[C@H](Nc2cc(N[C@@H](CC)[C@@H](C)O)nc3c2ncn3CC)C1"
system_tested = "CDK1:CCNB1 (Homo sapiens (Human))"
measurement_type = "IC50"
result_value = "426 nM"

[[record]]
compound = "CCn1cnc2c(N[C@H]3CCN(S(=O)(=O)CF)C3)nc(N[C@@H](CO)C(C)C)nc21"
system_tested = "CDK1:CCNB1 (Homo sapiens (Human))"
measurement_type = "IC50"
result_value = "557 nM"

[[record]]
compound = "CCn1cnc2c(N[C@H]3CCN(S(=O)(=O)NC)C3)nc(N[C@@H](C)[C@@H](O)C(F)(F)F)nc21 (single isomer, unassigned) [Example 49]"
system_tested = "CDK1:CCNB1 (Homo sapiens (Human))"
measurement_type = "IC50"
result_value = "907 nM"

[[record]]
compound = "CCn1cnc2c(N[C@H]3CCN(S(=O)(=O)NC)C3)nc(N[C@@H]3c4ccccc4C[C@@H]3O)nc21"
system_tested = "CDK1:CCNB1 (Homo sapiens (Human))"
measurement_type = "IC50"
result_value = "532 nM"

[[record]]
compound = "CC[C@H](Nc1nc(N[C@@H]2CN(S(=O)(=O)c3ncc[nH]3)C[C@H]2F)c2ncn(C)c2n1)[C@@H](C)O (relative stereo)"
system_tested = "CDK1:CCNB1 (Homo sapiens (Human))"
measurement_type = "IC50"
result_value = "1500 nM"

[[record]]
compound = "CCn1cnc2c(N[C@H]3CCN(S(=O)(=O)NC)C3)nc(-c3cccc4c3CC[C@]4(C)O)nc21 (relative stereo)"
system_tested = "CDK1:CCNB1 (Homo sapiens (Human))"
measurement_type = "IC50"
result_value = "636 nM"

[[record]]
compound = "CC(C)[C@H](CO)Nc1nc(N[C@@H]2CN(S(C)(=O)=O)C[C@H]2F)c2ncn(C(C)C)c2n1"
system_tested = "CDK1:CCNB1 (Homo sapiens (Human))"
measurement_type = "IC50"
result_value = "5750 nM"

[[record]]
compound = "CC[C@H](Nc1nc(N[C@H]2CCN(S(=O)(=O)NC[C@@H]3COCCO3)C2)c2ncn(CC)c2n1)[C@@H](C)O"
system_tested = "CDK1:CCNB1 (Homo sapiens (Human))"
measurement_type = "IC50"
result_value = "3990 nM"

[[record]]
compound = "CC(C)n1cnc2c(N[C@H]3CCN(S(C)(=O)=O)C3)nc(NC(CO)C3CCCO3)nc21 (stereo partly shown)"
system_tested = "CDK1:CCNB1 (Homo sapiens (Human))"
measurement_type = "IC50"
result_value = "1600 nM"

[[record]]
compound = "CC(C)n1cnc2c(N[C@H]3CCN(S(C)(=O)=O)C3)nc(NC(CO)C3CCCC3)nc21 (stereo partly shown)"
system_tested = "CDK1:CCNB1 (Homo sapiens (Human))"
measurement_type = "IC50"
result_value = "1220 nM"

[[record]]
compound = "CCNS(=O)(=O)N1CC[C@H](Nc2nc(N[C@@H](CO)C3CC3)nc3c2ncn3C(F)F)C1"
system_tested = "CDK1:CCNB1 (Homo sapiens (Human))"
measurement_type = "IC50"
result_value = "98 nM"

[[record]]
compound = "C[C@H](Nc1nc(N[C@@H]2CN(S(=O)(=O)c3ncc[nH]3)C[C@H]2F)c2ncn(C(F)F)c2n1)[C@@H](O)C(F)(F)F (relative stereo)"
system_tested = "CDK1:CCNB1 (Homo sapiens (Human))"
measurement_type = "IC50"
result_value = "186 nM"

[[record]]
compound = "CC[C@H](Nc1nc(N[C@H]2CCN(S(=O)(=O)c3cn(C)cn3)C2)c2ncn(C(C)C)c2n1)[C@@H](C)O"
system_tested = "CDK1:CCNB1 (Homo sapiens (Human))"
measurement_type = "IC50"
result_value = "2210 nM"

[[record]]
compound = "CC(C)[C@H](CO)Nc1nc(N[C@H]2CCN(S(C)(=O)=O)C2)c2ncn(C3CC3)c2n1"
system_tested = "CDK1:CCNB1 (Homo sapiens (Human))"
measurement_type = "IC50"
result_value = "3700 nM"

[[record]]
compound = "CCNS(=O)(=O)N1C[C@@H](F)[C@H](Nc2nc(N[C@@H](CO)C3CC3)nc3c2ncn3C)C1 (relative stereo)"
system_tested = "CDK1:CCNB1 (Homo sapiens (Human))"
measurement_type = "IC50"
result_value = "651 nM"

[[record]]
compound = "CCn1cnc2c(N[C@H]3CCN(S(=O)(=O)NC)C3)nc(-c3cccc4c3CC[C@H]4O)nc21"
system_tested = "CDK1:CCNB1 (Homo sapiens (Human))"
measurement_type = "IC50"
result_value = "904 nM"

[[record]]
compound = "CCn1cnc2c(N[C@H]3CCN(S(=O)(=O)NC)C3)nc(-c3cccc4c3CNC4=O)nc21"
system_tested = "CDK1:CCNB1 (Homo sapiens (Human))"
measurement_type = "IC50"
result_value = "236 nM"

[[record]]
compound = "CCNS(=O)(=O)N1CC[C@H](Nc2nc(N[C@@H](CO)C3CC3)nc3c2ncn3C)C1"
system_tested = "CDK1:CCNB1 (Homo sapiens (Human))"
measurement_type = "IC50"
result_value = "342 nM"

[[record]]
compound = "CC(C)[C@H](CO)Nc1nc(N[C@H]2C[C@H](C)N(S(C)(=O)=O)C2)c2ncn(C(C)C)c2n1"
system_tested = "CDK1:CCNB1 (Homo sapiens (Human))"
measurement_type = "IC50"
result_value = "6080 nM"

[[record]]
compound = "CC[C@H](Nc1nc(N[C@@H]2CN(S(=O)(=O)NC)C[C@H]2F)c2ncn(CC)c2n1)[C@@H](C)O (relative stereo)"
system_tested = "CDK1:CCNB1 (Homo sapiens (Human))"
measurement_type = "IC50"
result_value = "1200 nM"

[[record]]
compound = "CC[C@H](Nc1nc(N[C@H]2CCN(S(=O)(=O)c3cnn(C)c3)C2)c2ncn(C(C)C)c2n1)[C@@H](C)O"
system_tested = "CDK1:CCNB1 (Homo sapiens (Human))"
measurement_type = "IC50"
result_value = "6290 nM"

[[record]]
compound = "CC(C)n1cnc2c(N[C@H]3CCN(S(C)(=O)=O)C3)nc(N[C@@H](CO)C3CC3)nc21"
system_tested = "CDK1:CCNB1 (Homo sapiens (Human))"
measurement_type = "IC50"
result_value = "746 nM"

[[record]]
compound = "CC(C)[C@H](CO)Nc1nc(N[C@@H]2CN(S(C)(=O)=O)C[C@H]2C)c2ncn(C(C)C)c2n1"
system_tested = "CDK1:CCNB1 (Homo sapiens (Human))"
measurement_type = "IC50"
result_value = "2020 nM"

[[record]]
compound = "CC(C)[C@H](CO)Nc1nc(N[C@H]2CCN(S(=O)(=O)C3CC3)C2)c2ncn(C(C)C)c2n1"
system_tested = "CDK1:CCNB1 (Homo sapiens (Human))"
measurement_type = "IC50"
result_value = "1420 nM"

[[record]]
compound = "CCn1cnc2c(N[C@H]3CCN(S(=O)(=O)NC)C3)nc(N[C@@H](C)[C@@H](O)C(F)(F)F)nc21 (single isomer, unassigned) [Example 50]"
system_tested = "CDK1:CCNB1 (Homo sapiens (Human))"
measurement_type = "IC50"
result_value = "2350 nM"

[[record]]
compound = "CC[C@H](Nc1nc(N[C@H]2C[C@@H](C)N(S(C)(=O)=O)C2)c2ncn(C(C)C)c2n1)[C@@H](C)O"
system_tested = "CDK1:CCNB1 (Homo sapiens (Human))"
measurement_type = "IC50"
result_value = "4590 nM"

[[record]]
compound = "CC[C@H](CO)Nc1nc(N[C@H]2CCN(S(=O)(=O)NC)C2)c2ncn(CC)c2n1"
system_tested = "CDK1:CCNB1 (Homo sapiens (Human))"
measurement_type = "IC50"
result_value = "562 nM"

[[record]]
compound = "CCn1cnc2c(N[C@H]3CCN(S(=O)(=O)C4CC4)C3)nc(N[C@@H](CO)C(C)C)nc21"
system_tested = "CDK1:CCNB1 (Homo sapiens (Human))"
measurement_type = "IC50"
result_value = "663 nM"

